Entries and their EC50 values follow.
- System: phospho-akt (Thr308) in PC-3 cells
- assay.method.text: Inhibition of phospho-akt (Thr308) in PC-3 cells, MSD phospho-akt 308 ELISA kit
- Type: cell-based
- condition.notes: Homo sapiens; inhibition of P308 Akt in PC-3 cells using MSD, 2 hours, no serum; read-out: EC50

As a guide, the following entries are already answered.
- compound: "C[C@H](NC(=O)c1cc(C#N)cnc1NCc1ccc(-c2cnc(N)c(O[C@@H]3CCC[C@H]3N)n2)cc1)c1ccc(F)cc1"
  EC50: "1000 to 10000 nM"
- compound: "C[C@H](NC(=O)c1cccnc1NCc1ccc(-c2cnc3[nH]ncc3c2)cc1)c1ccc(F)cc1"
  EC50: "1000 to 10000 nM"
- compound: "Cc1n[nH]c2ncc(-c3ccc(CNc4ncc(C#N)nc4C(=O)N[C@@H](C)c4ccc(F)c(F)c4)cc3)cc12"
  EC50: "< 1000 nM"
- compound: "Nc1ncc(-c2ccc(CNc3ncc(C(F)(F)F)cc3C(=O)Nc3ccc(F)cc3)cc2)nc1CCC1CCNC1 (centres unmarked)"
  EC50: "< 1000 nM"
- compound: "CC(Nc1ncc(C#N)nc1C(=O)N[C@@H](C)c1ccc(F)c(F)c1)c1ccc(-c2cnc3[nH]nc(N)c3c2)cc1 (stereo in doubt)"
  EC50: "> 10000 nM"
- compound: "Nc1n[nH]c2ncc(-c3ccc(CNc4ncc(C(F)(F)F)cc4C(=O)NC4CCC(F)(F)CC4)cc3)cc12"
  EC50: "1000 to 10000 nM"

Please provide the recorded EC50 for COc1cccc(NC(=O)c2cc(C(F)(F)F)cnc2NCc2ccc(-c3cnc4[nH]nc(N)c4c3)cc2)c1 , tested on phospho-akt (Thr308) in PC-3 cells.
1000 to 10000 nM
